Measured Selectivity ratio, listed per entry for reference.
species on record: Homo sapiens; test: Selectivity index, ratio of inhibition of full length human JNK1 (M1 to Q384 residues) expressed in mammalian expression system assessed as residual percent of control binding at 100 nM relative to control to inhibition of partial length human MKK4 (S84 to D399 residues) expressed in mammalian expression system assessed as residual percent of control binding at 100 nM relative to control
endpoint: Selectivity ratio

1. CCCS(=O)(=O)Nc1ccc(F)c(C(=O)c2n[nH]c3ncc(-c4cccc(N(C)C)c4)cc23)c1F : 3
2. CCCS(=O)(=O)Nc1ccc(F)c(C(=O)c2n[nH]c3ncc(-c4ccc(C(F)(F)F)cc4)cc23)c1F : 3
3. CCCS(=O)(=O)Nc1ccc(F)c(C(=O)c2n[nH]c3ncc(-c4ccccc4N)cc23)c1F : 3
4. CCCS(=O)(=O)Nc1ccc(F)c(C(=O)c2n[nH]c3ncc(-c4ccc(C(=O)NCC(O)CO)cc4)cc23)c1F (stereo not given) : > 30
5. CCCS(=O)(=O)Nc1ccc(F)c([S+]([O-])c2n[nH]c3ncc(-c4ccc(Cl)cc4)cc23)c1F (stereo not given) : < 3
6. CCCS(=O)(=O)Nc1ccc(F)c(C(=O)c2n[nH]c3ncc(-c4ccc(C(C)C)cc4)cc23)c1F : 3
7. CCCS(=O)(=O)Nc1ccc(F)c(C(=O)c2n[nH]c3ncc(-c4cccc(OC)c4)cc23)c1F : 10
8. CCCS(=O)(=O)Nc1ccc(F)c(C(=O)c2n[nH]c3ncc(-c4ccc(OC)cc4)cc23)c1F : 10
9. CCCS(=O)(=O)Nc1ccc(F)c(C(=O)c2n[nH]c3ncc(-c4ccccc4O)cc23)c1F : 3
10. CCCS(=O)(=O)Nc1ccc(F)c(S(=O)(=O)c2n[nH]c3ncc(-c4ccc(Cl)cc4)cc23)c1F : < 3

====

Recorded Selectivity ratio, one value per entry.
organism: Homo sapiens; assay: Selectivity index, ratio of inhibition of full length human MKK7 (M1 to R419 residues) expressed in mammalian expression system assessed as residual percent of control binding at 100 nM relative to control to inhibition of partial length human MKK4 (S84 to D399 residues) expressed in mammalian expression system assessed as residual percent of control binding at 100 nM relative to control
endpoint: Selectivity ratio

1. CCCS(=O)(=O)Nc1ccc(F)c(C(=O)c2n[nH]c3ncc(-c4ccccc4N)cc23)c1F : 3
2. CCCS(=O)(=O)Nc1ccc(F)c(C(=O)c2n[nH]c3ncc(-c4ccccc4C)cc23)c1F : 10
3. CCCS(=O)(=O)Nc1ccc(F)c(C(=O)c2n[nH]c3ncc(-c4cccc(N(C)C)c4)cc23)c1F : 3
4. CCCS(=O)(=O)Nc1ccc(F)c(C(=O)c2n[nH]c3ncc(-c4ccc(C(F)(F)F)cc4)cc23)c1F : 3
5. CCCS(=O)(=O)Nc1ccc(F)c(C(=O)c2n[nH]c3ncc(-c4ccc([N+](=O)[O-])cc4)cc23)c1F : 10
6. CCCS(=O)(=O)Nc1ccc(F)c(C(=O)c2n[nH]c3ncc(-c4cccc(F)c4)cc23)c1F : 10
7. CCCS(=O)(=O)Nc1ccc(F)c(C(=O)c2n[nH]c3ncc(-c4ccc(Cl)c(C(F)(F)F)c4)cc23)c1F : 3

====

organism: Homo sapiens; test: Selectivity index, ratio of inhibition of full length human JNK1 (M1 to Q384 residues) expressed in mammalian expression system assessed as residual percent of control binding at 100 nM relative to control to inhibition of partial length human MKK4 (S84 to D399 residues) expressed in mammalian expression system assessed as residual percent of control binding at 100 nM relative to control
endpoint: Selectivity ratio

1. CCCS(=O)(=O)Nc1ccc(F)c(C(=O)c2n[nH]c3ncc(-c4ccc(S(C)(=O)=O)cc4)cc23)c1F : > 30
2. CCCS(=O)(=O)Nc1ccc(F)c(C(=O)c2n[nH]c3ncc(-c4cccc(Cl)c4)cc23)c1F : < 3
3. CCCS(=O)(=O)Nc1ccc(F)c(C(=O)c2n[nH]c3ncc(-c4cccc(C(F)(F)F)c4)cc23)c1F : < 3
4. CCCS(=O)(=O)Nc1ccc(F)c(C(=O)c2n[nH]c3ncc(-c4ccc(C(=O)O)cc4)cc23)c1F : > 30
5. CCCS(=O)(=O)Nc1ccc(F)c(Cc2n[nH]c3ncc(-c4ccc(Cl)cc4)cc23)c1F : < 3
6. CCCS(=O)(=O)Nc1ccc(F)c(C(=O)c2n[nH]c3ncc(-c4ccc(S(=O)(=O)NCC(O)CO)cc4)cc23)c1F (stereo not drawn) : > 30
7. CCCS(=O)(=O)Nc1ccc(F)c(C(=O)c2n[nH]c3ncc(-c4ccccc4F)cc23)c1F : > 30
8. CCCS(=O)(=O)Nc1ccc(F)c(C(=O)c2n[nH]c3ncc(-c4ccc(O)cc4)cc23)c1F : > 30
